test system: K562 CRISPRi cells; test: Perturb-seq pooled growth measurement (sgRNA counts, growth phenotype γ, relative activity); format: cell-based, human; settings: pooled growth phenotype γ of the Perturb-seq sgRNA, day 10, K562 CRISPRi cells
assay.readout: gamma_day10
Keep the answer to the number alone.

Record excerpt, results attached:
| substance | reported |
| --- | --- |
| POLR1D_ + _28196016.23-P1_01 (guide GGGAAGCCAGGACCGACCGA; listed as DNA, chemistry not fully specified) | −0.5416 |
| ALDOA_ + _30077139.23-P1P2_14 (guide GGTCACCAGGACCGCTTCTG; listed as DNA, chemistry not fully specified) | −0.1566 |
| RAN_ + _131356438.23-P1P2_12 (guide GGCGGTCGCTGCGCTTAGGT; listed as DNA, chemistry not fully specified) | −0.03426 |
| DBR1_ + _137893744.23-P1P2_05 (guide GTTTGCAGGAGTGTACACCC; listed as DNA, chemistry not fully specified) | −0.3094 |
| RPS14_ + _149829238.23-P1P2_01 (guide GAGACCCGGGCGCGACAATC; listed as DNA, chemistry not fully specified) | −0.4807 |

// next entry
Query block: Recorded gamma_day10 of DUT_ + _48624411.23-P1P2_08 (guide GCGAGCGAGGAGGCCACCGG; listed as DNA, chemistry not fully specified) , please.
Result block: −0.5862

Where do the numbers come from? From patent US20220259593A1.
